Recorded values, source patent US11897862B2.

I'd be grateful if you could share measured Dmax for these entries.
- targetOrSystem: IKZF1 (Homo sapiens, UniProt Q13422+Q96SW2)
- Construct: expressed in transfected cells
- Sequence (Q13422 whole entry): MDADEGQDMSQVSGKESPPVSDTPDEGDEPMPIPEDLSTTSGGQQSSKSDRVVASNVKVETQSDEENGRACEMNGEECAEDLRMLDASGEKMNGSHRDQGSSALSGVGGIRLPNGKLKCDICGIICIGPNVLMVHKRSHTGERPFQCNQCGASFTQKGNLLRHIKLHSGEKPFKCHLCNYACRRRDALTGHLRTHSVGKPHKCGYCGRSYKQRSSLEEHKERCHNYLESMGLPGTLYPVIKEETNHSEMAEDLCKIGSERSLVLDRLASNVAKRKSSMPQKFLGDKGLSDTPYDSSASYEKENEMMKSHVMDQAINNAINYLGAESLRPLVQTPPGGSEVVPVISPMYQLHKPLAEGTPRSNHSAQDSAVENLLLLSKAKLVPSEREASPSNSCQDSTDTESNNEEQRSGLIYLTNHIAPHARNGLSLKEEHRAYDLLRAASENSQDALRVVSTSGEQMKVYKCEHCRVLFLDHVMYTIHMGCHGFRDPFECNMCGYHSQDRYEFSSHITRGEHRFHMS
- Sequence (Q96SW2 whole entry): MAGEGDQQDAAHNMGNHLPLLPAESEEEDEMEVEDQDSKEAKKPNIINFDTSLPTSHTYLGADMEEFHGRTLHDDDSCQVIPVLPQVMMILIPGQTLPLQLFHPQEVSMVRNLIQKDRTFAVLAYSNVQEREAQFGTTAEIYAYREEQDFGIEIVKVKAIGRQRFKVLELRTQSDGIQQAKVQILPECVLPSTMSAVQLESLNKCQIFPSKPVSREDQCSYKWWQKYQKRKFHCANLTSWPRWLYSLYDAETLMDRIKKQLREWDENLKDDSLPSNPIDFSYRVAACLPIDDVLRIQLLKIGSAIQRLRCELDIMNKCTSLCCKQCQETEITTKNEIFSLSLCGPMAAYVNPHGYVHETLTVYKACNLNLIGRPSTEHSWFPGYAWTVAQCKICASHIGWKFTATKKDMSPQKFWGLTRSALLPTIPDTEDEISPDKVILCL
- Sequence (Q16531 whole entry partner): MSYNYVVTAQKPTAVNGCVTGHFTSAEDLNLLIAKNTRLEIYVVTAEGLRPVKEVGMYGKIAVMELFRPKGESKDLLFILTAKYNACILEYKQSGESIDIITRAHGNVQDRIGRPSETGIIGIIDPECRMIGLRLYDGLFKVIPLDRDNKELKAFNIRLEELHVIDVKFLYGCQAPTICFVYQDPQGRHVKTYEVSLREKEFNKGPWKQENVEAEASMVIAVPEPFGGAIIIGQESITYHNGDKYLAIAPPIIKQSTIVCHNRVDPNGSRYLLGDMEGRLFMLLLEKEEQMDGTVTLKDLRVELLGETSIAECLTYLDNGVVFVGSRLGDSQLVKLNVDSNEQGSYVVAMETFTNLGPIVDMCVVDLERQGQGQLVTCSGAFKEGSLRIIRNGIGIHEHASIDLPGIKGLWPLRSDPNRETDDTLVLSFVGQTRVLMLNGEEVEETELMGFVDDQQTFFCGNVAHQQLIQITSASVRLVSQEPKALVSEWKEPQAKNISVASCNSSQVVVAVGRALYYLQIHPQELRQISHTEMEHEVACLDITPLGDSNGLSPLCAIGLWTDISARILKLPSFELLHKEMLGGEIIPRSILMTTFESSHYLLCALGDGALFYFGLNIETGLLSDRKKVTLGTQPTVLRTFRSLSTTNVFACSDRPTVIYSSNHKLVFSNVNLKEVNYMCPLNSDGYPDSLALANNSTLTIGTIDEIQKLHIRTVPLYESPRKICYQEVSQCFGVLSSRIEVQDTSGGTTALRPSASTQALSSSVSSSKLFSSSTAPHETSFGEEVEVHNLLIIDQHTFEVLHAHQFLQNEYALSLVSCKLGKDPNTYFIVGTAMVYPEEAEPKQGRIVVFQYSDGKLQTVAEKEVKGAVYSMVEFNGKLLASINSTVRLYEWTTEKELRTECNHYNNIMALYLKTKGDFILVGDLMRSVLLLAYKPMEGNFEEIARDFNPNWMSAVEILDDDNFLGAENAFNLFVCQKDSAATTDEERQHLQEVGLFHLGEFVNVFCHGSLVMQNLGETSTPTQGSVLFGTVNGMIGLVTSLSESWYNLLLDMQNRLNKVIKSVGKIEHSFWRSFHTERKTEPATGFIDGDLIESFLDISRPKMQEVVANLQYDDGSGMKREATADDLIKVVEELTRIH
- protocolDescription: HEK293 HiBiT in vitro degradation of IKZF1
- Assay type: cell-based
- reportedConditions: HEK293, HEK293 HiBiT; maximum degradation at the highest concentration tested
Field: numeric (%). Do not append units.

Exam item: Recorded Dmax of O=C1CCC(N2Cc3c(ccc(C[C@H]4CCCC[C@@H]4NC4CCCC4)c3F)C2=O)C(=O)N1 (stereo partly shown) [Example 87] , please.
Marked response: 39

Exam item: Recorded Dmax of O=C1CCC(N2Cc3cc(C[C@H]4CCCC[C@@H]4NC4CC5(CC5)C4)ccc3C2=O)C(=O)N1 (stereo partly shown) [Example 79] , please.
Marked response: 33

Exam item: Recorded Dmax of CC(CC1CC1)N[C@H]1CCCC[C@@H]1Cc1ccc2c(c1)CN(C1CCC(=O)NC1=O)C2=O (single isomer, unassigned) [Example 230] , please.
Marked response: 30

Exam item: Recorded Dmax of O=C1CCC(N2Cc3cc(C[C@H]4CCCC[C@@H]4NC4CC5CCC(C5)C4)ccc3C2=O)C(=O)N1 (stereo partly shown) [Example 191] , please.
Marked response: 30

Exam item: Recorded Dmax of O=C1CCC(N2Cc3cc(C[C@H]4CCCC[C@@H]4NC4CCc5cn[nH]c5C4)ccc3C2=O)C(=O)N1 (stereo partly shown) [Example 165] , please.
Marked response: 28

Exam item: Recorded Dmax of O=C1CC[C@H](N2Cc3cc(C[C@H]4CCCC[C@@H]4NC4CCC(F)(F)CC4)ccc3C2=O)C(=O)N1 (single isomer, unassigned) [Example 328] , please.
Marked response: 62

Exam item: Recorded Dmax of O=C1CCC(N2Cc3cc(C[C@H]4CCCC[C@@H]4NC4CCc5cn[nH]c5C4)ccc3C2=O)C(=O)N1 (single isomer, unassigned) [Example 358] , please.
Marked response: 34

Exam item: Recorded Dmax of [2H]C1(N[C@H]2CCCC[C@@H]2Cc2ccc3c(c2F)CN(C2CCC(=O)NC2=O)C3=O)CCCCC1 (stereo partly shown) [Example 211] , please.
Marked response: 37

Exam item: Recorded Dmax of CCOC1CC(N[C@H]2CCCC[C@@H]2Cc2ccc3c(c2)CN(C2CCC(=O)NC2=O)C3=O)C1 (stereo partly shown) [Example 75] , please.
Marked response: 51

Exam item: Recorded Dmax of CC1CCC(N[C@H]2CCCC[C@@H]2Cc2ccc3c(c2)CN(C2CCC(=O)NC2=O)C3=O)CC1 (single isomer, unassigned) [Example 279] , please.
Marked response: 30

Exam item: Recorded Dmax of C=C1CC[C@H](N)[C@@H](Cc2ccc3c(c2)CN(C2CCC(=O)NC2=O)C3=O)C1 (stereo partly shown) [Example 381] , please.
Marked response: 29

Exam item: Recorded Dmax of CC(C)N[C@H]1CCCC[C@@H]1Cc1ccc2c(c1)CN(C1CCC(=O)NC1=O)C2=O (stereo partly shown) [Example 7] , please.
Marked response: 36

Exam item: Recorded Dmax of [2H]C([2H])(N[C@H]1CCCC[C@@H]1Cc1ccc2c(c1)CN(C1CCC(=O)NC1=O)C2=O)c1ccccc1 (single isomer, unassigned) [Example 97] , please.
Marked response: 30

Exam item: Recorded Dmax of N[C@H]1CCCC[C@@H]1Cc1ccc2c(c1)CN(C1CCC(=O)NC1=O)C2=O (stereo partly shown) [Example 1] , please.
Marked response: 30

Exam item: Recorded Dmax of O=C1CCC(N2Cc3cc(C[C@H]4CCCC[C@@H]4NC4CCC5(CCO5)CC4)ccc3C2=O)C(=O)N1 (stereo partly shown) [Example 171] , please.
Marked response: 37

Exam item: Recorded Dmax of O=C1CCC(N2Cc3cc(C[C@H]4CCCC[C@@H]4NC4Cc5ccccc5C4)ccc3C2=O)C(=O)N1 (stereo partly shown) [Example 177] , please.
Marked response: 42

Exam item: Recorded Dmax of CC(C)OC1CCC(N[C@H]2CCCC[C@@H]2Cc2ccc3c(c2)CN(C2CCC(=O)NC2=O)C3=O)CC1 (single isomer, unassigned) [Example 167] , please.
Marked response: 36

Exam item: Recorded Dmax of CC1(C)CCC(N[C@H]2CCCC[C@@H]2Cc2ccc3c(c2)CN(C2CCC(=O)NC2=O)C3=O)CC1 (stereo partly shown) [Example 27] , please.
Marked response: 27

Exam item: Recorded Dmax of O=C1CCC(N2Cc3c(ccc(C[C@H]4OCCC[C@@H]4N[C@H]4CC[C@@H](F)CC4)c3F)C2=O)C(=O)N1 (single isomer, unassigned) [Example 290] , please.
Marked response: 27

Exam item: Recorded Dmax of O=C1CCC(N2Cc3cc(C[C@H]4CCCC[C@@H]4NC4CCC(OC(F)F)CC4)ccc3C2=O)C(=O)N1 (stereo partly shown) [Example 323] , please.
Marked response: 45

Exam item: Recorded Dmax of O=C1CCC(N2Cc3cc(C[C@H]4CCCC[C@@H]4NC4CC5CC(C5)C4)ccc3C2=O)C(=O)N1 (stereo partly shown) [Example 29] , please.
Marked response: 39

Exam item: Recorded Dmax of O=C1CCC(N2Cc3cc(C[C@H]4CCCC[C@@H]4NCCc4ccccc4)ccc3C2=O)C(=O)N1 (stereo partly shown) [Example 93] , please.
Marked response: 22

Exam item: Recorded Dmax of O=C1CCC(N2Cc3cc(C[C@H]4CCCC[C@@H]4NCc4cccnc4)ccc3C2=O)C(=O)N1 (stereo partly shown) [Example 41] , please.
Marked response: 44

Exam item: Recorded Dmax of O=C1CCC(N2Cc3c(ccc(C[C@H]4CCCC[C@@H]4NC4CC5CCCC5C4)c3F)C2=O)C(=O)N1 (stereo partly shown) [Example 141] , please.
Marked response: 53

Exam item: Recorded Dmax of C[C@H]1CCCC(N[C@H]2CCCC[C@@H]2Cc2ccc3c(c2)CN(C2CCC(=O)NC2=O)C3=O)C1 (stereo partly shown) [Example 236] , please.
Marked response: 34

Exam item: Recorded Dmax of [2H]C1(N[C@H]2CCCC[C@@H]2Cc2ccc3c(c2)CN(C2CCC(=O)NC2=O)C3=O)CCCCC1 (stereo partly shown) [Example 215] , please.
Marked response: 29

Exam item: Recorded Dmax of [2H]C1(N[C@H]2CCCC[C@@H]2Cc2ccc3c(c2F)CN(C2CCC(=O)NC2=O)C3=O)CCCC1 (stereo partly shown) [Example 212] , please.
Marked response: 42

Exam item: Recorded Dmax of Cn1nccc1CN[C@H]1CCCC[C@@H]1Cc1ccc2c(c1)CN(C1CCC(=O)NC1=O)C2=O (stereo partly shown) [Example 39] , please.
Marked response: 34

====

- targetOrSystem: IKZF2 (Homo sapiens, UniProt Q96SW2+Q9UKS7)
- Sequence (Q9UKS7 1-500 isoform Q9UKS7-2, one chain of several): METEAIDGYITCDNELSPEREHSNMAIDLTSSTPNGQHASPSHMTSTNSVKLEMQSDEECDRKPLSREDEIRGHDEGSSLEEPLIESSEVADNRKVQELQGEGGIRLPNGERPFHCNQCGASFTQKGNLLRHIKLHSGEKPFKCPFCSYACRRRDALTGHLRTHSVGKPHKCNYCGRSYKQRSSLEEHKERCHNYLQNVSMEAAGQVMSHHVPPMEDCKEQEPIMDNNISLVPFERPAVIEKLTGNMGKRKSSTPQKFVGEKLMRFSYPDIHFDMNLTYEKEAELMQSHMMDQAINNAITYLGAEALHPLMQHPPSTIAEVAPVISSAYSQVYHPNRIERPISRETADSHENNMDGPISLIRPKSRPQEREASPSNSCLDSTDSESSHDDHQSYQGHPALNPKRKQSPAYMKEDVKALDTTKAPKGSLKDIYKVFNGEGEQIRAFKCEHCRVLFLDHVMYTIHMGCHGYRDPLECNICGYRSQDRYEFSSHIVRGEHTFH
- protocolDescription: HEK293 HiBiT in vitro degradation of IKZF2
- Assay type: cell-based
- Parameters: expressed in transfected cells
- reportedConditions: HEK293, HEK293 HiBiT; maximum degradation at the highest concentration tested
I'd be grateful if you could share measured Dmax for these entries.
Field: numeric (%). Do not append units.

Exam item: Recorded Dmax of O=C1CCC(N2Cc3cc(C[C@H]4CCCC[C@@H]4N4CC(OCC5CC5)C4)ccc3C2=O)C(=O)N1 (some centres unmarked) , please.
Marked response: 74

Exam item: Recorded Dmax of CC(N[C@H]1CCCC[C@@H]1Cc1ccc2c(c1)CN(C1CCC(=O)NC1=O)C2=O)C1(C)CCC1 (some centres unmarked) , please.
Marked response: 95

Exam item: Recorded Dmax of CC(N[C@H]1CCCO[C@@H]1Cc1ccc2c(c1F)CN(C1CCC(=O)NC1=O)C2=O)C1COC1 (some centres unmarked) , please.
Marked response: 96

Exam item: Recorded Dmax of O=C1CCC(N2Cc3cc(C[C@H]4CCCC[C@@H]4N(CC4CCOCC4)CC4CCOCC4)ccc3C2=O)C(=O)N1 (some centres unmarked) , please.
Marked response: 48

Exam item: Recorded Dmax of O=C1CCC(N2Cc3cc(C[C@H]4CCCC[C@@H]4NC4CCOc5ccccc54)ccc3C2=O)C(=O)N1 (some centres unmarked) , please.
Marked response: 96

Exam item: Recorded Dmax of CCC(C)N[C@H]1CCCC[C@@H]1Cc1ccc2c(c1)CN(C1CCC(=O)NC1=O)C2=O (some centres unmarked) [Example 176] , please.
Marked response: 96

Exam item: Recorded Dmax of O=C1CCC(N2Cc3cc(C[C@H]4CCCC[C@@H]4NCc4cccnc4F)ccc3C2=O)C(=O)N1 (some centres unmarked) , please.
Marked response: 79

Exam item: Recorded Dmax of O=C1CCC(N2Cc3cc(C[C@H]4CCCC[C@@H]4NC4C5CCCC4CC5)ccc3C2=O)C(=O)N1 (some centres unmarked) , please.
Marked response: 95

Exam item: Recorded Dmax of O=C1CCC(N2Cc3c(ccc(C[C@H]4OCCC[C@@H]4NC4CCCOC4)c3F)C2=O)C(=O)N1 (single isomer, unassigned) , please.
Marked response: 85

Exam item: Recorded Dmax of O=C1CCC(N2Cc3cc(C[C@H]4CC[C@@H](F)C[C@@H]4NC4CCC(F)(F)CC4)ccc3C2=O)C(=O)N1 (some centres unmarked) , please.
Marked response: 93

Exam item: Recorded Dmax of Cn1ncc2c1CCC(N[C@H]1CCCC[C@@H]1Cc1ccc3c(c1)CN(C1CCC(=O)NC1=O)C3=O)C2 (some centres unmarked) , please.
Marked response: 97

Exam item: Recorded Dmax of O=C1CCC(N2Cc3cc(C[C@H]4CCCC[C@@H]4NC4CCc5[nH]nc(C(F)(F)F)c5C4)ccc3C2=O)C(=O)N1 (some centres unmarked) , please.
Marked response: 99

Exam item: Recorded Dmax of O=C1CCC(N2Cc3c(ccc(C[C@H]4OCCC[C@@H]4NC4CCC5(CC4)CC5(F)F)c3F)C2=O)C(=O)N1 (single isomer, unassigned) , please.
Marked response: 96

Exam item: Recorded Dmax of O=C1CCC(N2Cc3c(ccc(C[C@H]4CCCC[C@@H]4NCC4COC4)c3F)C2=O)C(=O)N1 (some centres unmarked) , please.
Marked response: 98
